test system: Acinetobacter baumannii isolates; test: Antimicrobial susceptibility test, disc diffusion method (CLSI M100-S24); format: cell-based; conditions: isolate AB1; disc diffusion
observable: Inhibition zone

Some solved cases for reference:
>  <compound>
C[C@H]1COc2c(N3CCN(C)CC3)c(F)cc3c(=O)c(C(=O)O)cn1c23 [LEV, Levofloxacin]

>  <test.system>
Acinetobacter baumannii isolates

>  <Inhibition zone>
30 mm

$$$$
>  <compound>
C[C@@H](O)[C@H]1C(=O)N2C(C(=O)O)=C(SCCN=CN)C[C@H]12 [IP, Imipenem]

>  <test.system>
Acinetobacter baumannii isolates

>  <Inhibition zone>
NZ

$$$$
>  <compound>
CC1(C)S[C@@H]2[C@H](NC(=O)[C@H](N)c3ccc(O)cc3)C(=O)N2[C@H]1C(=O)O [AMX, Amoxicillin]

>  <test.system>
Acinetobacter baumannii isolates

>  <Inhibition zone>
NZ

$$$$
>  <compound>
CO[C@@]1(NC(=O)Cc2cccs2)C(=O)N2C(C(=O)O)=C(COC(N)=O)CS[C@@H]21 [FOX, Cefoxitin]

>  <test.system>
Acinetobacter baumannii isolates

>  <Inhibition zone>
NZ

$$$$
>  <compound>
NCC[C@H](O)C(=O)N[C@@H]1C[C@H](N)[C@@H](O[C@H]2O[C@H](CN)[C@@H](O)[C@H](O)[C@H]2O)[C@H](O)[C@H]1O[C@H]1O[C@H](CO)[C@@H](O)[C@H](N)[C@H]1O [AK, Amikacin]

>  <test.system>
Acinetobacter baumannii isolates

>  <Inhibition zone>
24 mm

$$$$

# input for lookup
IN: Would you mind telling me what Inhibition zone value was observed for CN(C)[C@@H]1C(O)=C(C(N)=O)C(=O)[C@@]2(O)C(O)=C3C(=O)c4c(O)cccc4[C@@](C)(O)[C@H]3C[C@@H]12 [TET, Tetracycline] ?
OUT: NZ

----------
tested on: Acinetobacter baumannii isolates; assay: Antimicrobial susceptibility test, disc diffusion method (CLSI M100-S24); assay type: cell-based; settings: isolate AB15; disc diffusion
observable: Inhibition zone (mm)
# value in mm; strip the unit string

Some solved cases for reference:
>  <compound>
CO/N=C(\C(=O)N[C@@H]1C(=O)N2C(C(=O)[O-])=C(C[N+]3(C)CCCC3)CS[C@H]12)c1csc(N)n1 [FEP, Cefepime]

>  <value.units>
mm

>  <observed.value>
8

$$$$
>  <compound>
C[C@H]1COc2c(N3CCN(C)CC3)c(F)cc3c(=O)c(C(=O)O)cn1c23 [LEV, Levofloxacin]

>  <value.units>
mm

>  <observed.value>
15

$$$$
>  <compound>
NCC[C@H](O)C(=O)N[C@@H]1C[C@H](N)[C@@H](O[C@H]2O[C@H](CN)[C@@H](O)[C@H](O)[C@H]2O)[C@H](O)[C@H]1O[C@H]1O[C@H](CO)[C@@H](O)[C@H](N)[C@H]1O [AK, Amikacin]

>  <value.units>
mm

>  <observed.value>
13

$$$$

# input for lookup
IN: Would you mind telling me what Inhibition zone value was observed for O=C(N[C@H](CO)[C@H](O)c1ccc([N+](=O)[O-])cc1)C(Cl)Cl [CHL, Chloramphenicol] ?
OUT: 10

----------
tested on: Acinetobacter baumannii isolates; assay: Antimicrobial susceptibility test, disc diffusion method (CLSI M100-S24); type: cell-based; parameters: key: “NZ” indicated that no zone of inhibition was observed; conditions: isolate AB33; disc diffusion
observable: Inhibition zone

>  <compound>
CO[C@@]1(NC(=O)Cc2cccs2)C(=O)N2C(C(=O)O)=C(COC(N)=O)CS[C@@H]21 [FOX, Cefoxitin]

>  <observed.value>
NZ

$$$$
>  <compound>
CC1(C)S[C@@H]2[C@H](NC(=O)[C@H](N)c3ccc(O)cc3)C(=O)N2[C@H]1C(=O)O [AMX, Amoxicillin]

>  <observed.value>
NZ

$$$$
>  <compound>
C[C@@H](O)[C@H]1C(=O)N2C(C(=O)O)=C(SCCN=CN)C[C@H]12 [IP, Imipenem]

>  <observed.value>
NZ

$$$$
